Where do the numbers come from? From PubChem BioAssay (NCI).

As shown below, each of these compounds has a reported TGI value.
Test system: SF-295 CNS
EXPERIMENTAL PROTOCOL: NCI tumour cell line growth inhibition, 48 h
Give the number; µM is assumed, so skip it.

Reported TGI ( Cc1cc(C)[n+]2c(c1)C=CC2 ) = 71.8

* * *

Test system: OVCAR-8 ovarian
EXPERIMENTAL PROTOCOL: NCI tumour cell line growth inhibition, 48 h
READOUT KIND: TGI

As a guide, the following entries are already answered.
COMPOUND: COc1cc(/C=C2\[C@@H]3NC(Cc4c(OC)c(C)c(OC)c(OC)c43)C(=O)N2Cc2ccccc2)c(OC)c(C)c1OC
READOUT KIND: TGI
ASSAY VALUE: > 100 µM
--
COMPOUND: NC(=O)NNC/C(Cl)=C(\Cl)C(=O)O
READOUT KIND: TGI
ASSAY VALUE: > 100 µM
--
COMPOUND: COc1cc2c3c(n(C)c(=O)c2cc1OC)-c1cc2c(cc1/C3=C\CCCCl)OCO2
READOUT KIND: TGI
ASSAY VALUE: > 100 µM
--
COMPOUND: O=C(CCCCCNC(=O)c1ccc(Cl)cc1)NO
READOUT KIND: TGI
ASSAY VALUE: 86.8 µM

Now, please, on to the next compound.
Tested on OVCAR-8 ovarian: COc1cc2c(cc1OC)C(Cl)C(c1ccc(Br)cc1)=C2Cl (stereo unspecified) . Observed TGI: 26.1 µM
